Tested on: AncSZ
experimental-details: phosphorylation enrichment, bacterial display (enrichment ratio); higher = better substrate or ligand; peptides without Tyr show the background;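 also: 11-residue human phosphosite peptides and single-mutation variants displayed on the E. coli surface, counted by deep sequencing, each peptide's frequency after selection divided by its frequency in the unselected input library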;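 also: frequency after pTyr selection over input frequency; kinase dosed for 20-30% of maximal phosphorylation in three min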
attribute-measured: phosphorylation enrichment
Form field (numeric): enter value without unit.

Challenge: Quick check: phosphorylation enrichment on AncSZ, item CSSPTYRDCLQ [LARGE2_Y682_R677C] ?
Response given: 0.812

Challenge: Could you do the same for GFDHSYFFIAT [ESD_Y262_YF] , please?
Response given: 1.52

Challenge: Could you do the same for DDPRTYQKFGF [OAS1_Y362_R361T_YF] , please?
Response given: 0.825

Challenge: Could you do the same for FLAVGYHKTHI [IDS_Y225_P228T] , please?
Response given: 0.784

Challenge: Could you do the same for RQGKDYVGAIP [KDR_Y951] , please?
Response given: 0.705

Challenge: Could you do the same for RSHRSYSCQVM [IGLL1_Y192_R189H] , please?
Response given: 0.609

Challenge: Could you do the same for WEQELYSQLVF [WAS_Y102_YF] , please?
Response given: 2.24

====

tested-on: Fyn (UniProt P06241)
Sequence (P06241 whole entry, looked up): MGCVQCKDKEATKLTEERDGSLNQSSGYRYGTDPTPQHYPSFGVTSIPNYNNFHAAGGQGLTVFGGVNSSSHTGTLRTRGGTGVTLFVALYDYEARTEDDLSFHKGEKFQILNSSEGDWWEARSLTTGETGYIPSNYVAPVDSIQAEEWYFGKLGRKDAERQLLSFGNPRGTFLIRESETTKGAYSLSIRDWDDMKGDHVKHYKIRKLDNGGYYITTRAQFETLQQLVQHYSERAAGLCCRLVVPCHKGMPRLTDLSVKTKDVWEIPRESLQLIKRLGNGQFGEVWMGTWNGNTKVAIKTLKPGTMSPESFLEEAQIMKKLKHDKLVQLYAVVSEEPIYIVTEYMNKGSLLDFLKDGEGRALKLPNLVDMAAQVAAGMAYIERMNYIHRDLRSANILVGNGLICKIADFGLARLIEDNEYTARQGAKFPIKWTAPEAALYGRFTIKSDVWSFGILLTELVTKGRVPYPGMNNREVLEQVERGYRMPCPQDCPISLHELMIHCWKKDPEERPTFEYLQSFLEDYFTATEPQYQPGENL
experimental-details: phosphorylation enrichment, bacterial display (enrichment ratio); higher = better substrate or ligand; peptides without Tyr show the background
Rule: phosphorylation enrichment under 0.5 gives no, otherwise yes.

Sample answers from the record:
{"columns": ["seq", "category-label"],
 "data": [
  ["ALEQKYWALGQ [MAP1A_Y1555]", "yes"],
  ["FAFQLYDLDRD [CHP2_Y123_YF]", "yes"],
  ["WSFNLYDINKD [KCNIP3_Y174_A170S]", "yes"],
  ["SGVNKYSTAFG [GJB3_Y16]", "no"],
  ["FSQNIYIQNRN [PKP2_Y631_YF]", "no"]
]}

Challenge: Given the entry KSEKVYTRHGV [FLOT1_Y56] , answer whether its phosphorylation enrichment meets or surpasses 0.5.
Response given: no

====

# phosphorylation enrichment listing for each entry below
System: AncSZ
experimental-details: phosphorylation enrichment, bacterial display (enrichment ratio); higher = better substrate or ligand; peptides without Tyr show the background
Form field (numeric): enter value without unit.

{"columns": ["seq", "tested-on", "endpoint-result"],
 "data": [
  ["ILTLKYPIEHG [ACTA1_Y71]", "AncSZ", 0.716],
  ["LSSISYVGCSL [ADGRD1_Y571]", "AncSZ", 1.01],
  ["KFLVGYEMLAQ [GALT_Y339_M336L]", "AncSZ", 0.701]
]}

Challenge: Recorded phosphorylation enrichment of RNPLRYTSILT [OR51B6_Y130_S126N] , please.
Response given: 0.689

====

Test system: c-Src
experimental-details: phosphorylation enrichment, bacterial display (enrichment ratio); higher = better substrate or ligand; peptides without Tyr show the background
attribute-measured: phosphorylation enrichment
Form field (numeric): enter value without unit.

Worked examples follow.
{"columns": ["seq", "phosphorylation enrichment"],
 "data": [
  ["TVQVAYFTMMM [SPATA17_Y83_YF]", 0.599],
  ["TGDFGYRTPGF [TNS2_Y668_A670T_YF]", 0.413],
  ["FDEFRYRSFIK [CFTR_Y517_V520F_YF]", 0.419]
]}

# evaluate next
Challenge: Recorded phosphorylation enrichment of KLIMEYLPFGS [JAK2_Y931_YF] , please.
Response given: 0.558

====

tested-on: EPHB2 (UniProt P29323)
Sequence (P29323 whole entry, looked up): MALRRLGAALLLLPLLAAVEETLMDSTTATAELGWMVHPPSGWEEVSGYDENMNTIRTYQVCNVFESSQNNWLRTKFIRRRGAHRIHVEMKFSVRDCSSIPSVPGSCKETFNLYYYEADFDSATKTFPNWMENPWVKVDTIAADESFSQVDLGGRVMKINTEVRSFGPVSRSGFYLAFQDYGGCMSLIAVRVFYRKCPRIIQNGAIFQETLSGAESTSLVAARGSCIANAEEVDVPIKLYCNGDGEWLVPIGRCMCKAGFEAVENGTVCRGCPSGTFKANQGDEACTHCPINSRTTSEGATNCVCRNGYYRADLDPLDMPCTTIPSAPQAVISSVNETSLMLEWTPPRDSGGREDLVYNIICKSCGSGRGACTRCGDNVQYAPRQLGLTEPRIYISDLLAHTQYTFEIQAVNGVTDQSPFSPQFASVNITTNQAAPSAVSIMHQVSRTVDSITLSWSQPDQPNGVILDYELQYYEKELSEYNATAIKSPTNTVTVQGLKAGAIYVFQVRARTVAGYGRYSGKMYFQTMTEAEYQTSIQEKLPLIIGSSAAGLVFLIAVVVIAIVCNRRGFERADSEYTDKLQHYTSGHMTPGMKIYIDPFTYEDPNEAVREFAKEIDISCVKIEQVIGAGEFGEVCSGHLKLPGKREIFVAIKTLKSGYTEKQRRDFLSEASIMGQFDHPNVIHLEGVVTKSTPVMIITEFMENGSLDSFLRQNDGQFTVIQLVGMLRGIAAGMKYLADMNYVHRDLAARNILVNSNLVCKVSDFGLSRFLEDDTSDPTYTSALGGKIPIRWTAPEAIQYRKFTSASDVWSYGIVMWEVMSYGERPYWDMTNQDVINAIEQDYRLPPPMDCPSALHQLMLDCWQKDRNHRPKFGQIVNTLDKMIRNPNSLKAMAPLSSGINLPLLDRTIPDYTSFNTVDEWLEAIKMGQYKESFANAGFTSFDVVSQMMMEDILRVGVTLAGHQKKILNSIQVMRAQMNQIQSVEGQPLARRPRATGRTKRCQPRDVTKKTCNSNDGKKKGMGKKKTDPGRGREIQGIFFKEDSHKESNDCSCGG
experimental-details: phosphorylation enrichment, bacterial display (enrichment ratio); higher = better substrate or ligand; peptides without Tyr show the background
Recorded phosphorylation enrichment split into classes one: < 0.5; two: ≥ 0.5 and < 0.8; three: ≥ 0.8

Sample answers from the record:
{"columns": ["seq", "category-label"],
 "data": [
  ["LVKDGYQMAQP [CSF1R_Y873]", "one"],
  ["NAPNSYGRRPI [CDKN2A_Y44]", "three"],
  ["GQDLLYEDEDL [PACS1_Y303_F302L]", "two"],
  ["LNPLVYTLRNA [OR4C12_Y285_V283L]", "three"],
  ["KQLFAYKMLMA [TMC2_Y209_YF]", "two"]
]}

Below: the item to evaluate.
Challenge: Determine which band this sequence sits in: "LAVNPYGPPDL"
Response given: one

====

# phosphorylation enrichment listing for each entry below
tested-on: FGFR3 (UniProt P22607)
Sequence (P22607 whole entry, looked up): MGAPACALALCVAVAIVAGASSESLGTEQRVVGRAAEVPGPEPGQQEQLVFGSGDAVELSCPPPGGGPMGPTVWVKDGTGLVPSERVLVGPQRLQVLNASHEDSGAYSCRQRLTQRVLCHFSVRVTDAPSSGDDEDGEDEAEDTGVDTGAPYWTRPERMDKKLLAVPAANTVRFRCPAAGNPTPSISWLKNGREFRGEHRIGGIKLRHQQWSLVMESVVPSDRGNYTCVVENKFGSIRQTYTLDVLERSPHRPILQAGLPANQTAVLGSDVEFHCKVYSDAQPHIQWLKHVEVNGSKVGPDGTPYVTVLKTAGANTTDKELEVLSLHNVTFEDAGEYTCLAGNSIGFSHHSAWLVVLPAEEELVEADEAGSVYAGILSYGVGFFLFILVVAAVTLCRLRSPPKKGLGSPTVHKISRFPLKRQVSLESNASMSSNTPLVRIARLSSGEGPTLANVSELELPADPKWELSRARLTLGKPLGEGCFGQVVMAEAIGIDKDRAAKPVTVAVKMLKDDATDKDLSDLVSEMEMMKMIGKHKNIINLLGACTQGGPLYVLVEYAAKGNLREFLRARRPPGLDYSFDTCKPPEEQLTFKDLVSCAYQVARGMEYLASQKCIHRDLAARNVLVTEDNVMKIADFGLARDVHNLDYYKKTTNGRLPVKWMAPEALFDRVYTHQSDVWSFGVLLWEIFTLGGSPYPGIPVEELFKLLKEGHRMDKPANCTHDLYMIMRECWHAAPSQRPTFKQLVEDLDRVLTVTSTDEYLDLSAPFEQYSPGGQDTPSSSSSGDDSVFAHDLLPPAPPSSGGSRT
experimental-details: phosphorylation enrichment, bacterial display (enrichment ratio); higher = better substrate or ligand; peptides without Tyr show the background
Form field (numeric): enter value without unit.

{"columns": ["seq", "endpoint-result"],
 "data": [
  ["ASLEAYCKHKF [RXRA_Y403_YF]", 0.915],
  ["SAGSSYSISSI [PAX5_Y179_G183S]", 0.533],
  ["REDIFYTSKLW [AKR1C2_Y81]", 1.01],
  ["YEREQYADRAR [RBM4_Y355]", 0.534],
  ["KYVKMYDNHQL [MYO9A_Y203]", 0.432],
  ["LSDGPYSSPFE [EPOR_Y485_N487S_YF]", 0.715],
  ["YSMGCYEIYLG [HMGCL_Y198_S201Y]", 2.19],
  ["LAVNPYGPPDL", 0.911],
  ["KVDKEYEVGVR [GHR_Y226_R229G]", 0.493],
  ["NGRQCYSCKGN [PLAUR_Y217]", 0.341]
]}

Challenge: Recorded phosphorylation enrichment of STEAIYWRFSK [SH3PXD2B_Y42_R43W_YF] , please.
Response given: 1.13

Challenge: Could you do the same for SQETYYRVSNM [ABCD1_Y181_Q178E] , please?
Response given: 4.94

Challenge: Could you do the same for PVDVAYRRGYF [PLEC_Y2967] , please?
Response given: 0.588

====

tested-on: FGFR3 (UniProt P22607)
experimental-details: phosphorylation enrichment, bacterial display (enrichment ratio); higher = better substrate or ligand; peptides without Tyr show the background
attribute-measured: phosphorylation enrichment
Form field (numeric): enter value without unit.

Worked examples follow.
{"columns": ["seq", "phosphorylation enrichment"],
 "data": [
  ["EFNLMYDGTKE [IRF6_Y97]", 0.603],
  ["IKKFKYGIEEH [GJA1_Y137]", 0.476],
  ["IVRSRYEDLED [VHL_Y185_L184R]", 0.704],
  ["AVLSLYASGCT [ACTA2_Y145_R149C]", 0.811],
  ["KSEKVYTRHGV [FLOT1_Y56]", 0.341],
  ["TEQDPYNNIVR [MMUT_Y364]", 0.601],
  ["DNACQYMLTDR [MYH7_Y164_Y162C]", 0.691],
  ["SAEEDYKADAK [KCNT1_Y876_M877K]", 0.684],
  ["LHQSTYQCYDV [SLC7A14_Y693_R695C]", 1.2],
  ["YDEYRYRSFIK [CFTR_Y517_V520F]", 0.679]
]}

Challenge: Recorded phosphorylation enrichment of LRFEVYGGENE [STOX1_Y610_YF] , please.
Response given: 0.774

Challenge: Could you do the same for MSRDVYSIDYY [NTRK2_Y702_T704I] , please?
Response given: 3.12

Challenge: Could you do the same for CTHDLYMFMRE [FGFR3_Y724_I726F] , please?
Response given: 1.45

Challenge: Could you do the same for VERRVYAEDPF [PCCA_Y401_C398R_YF] , please?
Response given: 0.481

Challenge: Could you do the same for ECKLLYSQKEG [PTPN11_Y263_R265Q] , please?
Response given: 0.705

Challenge: Could you do the same for HYGNNYTDVLQ [MACC1_Y803_R804T] , please?
Response given: 1.05

Challenge: Could you do the same for WVYNHYRCIIW [BRCA2_Y2624_W2626C] , please?
Response given: 0.891

Challenge: Could you do the same for PRAGVYPEKDQ [DNM2_Y626_L621P] , please?
Response given: 0.759

Challenge: Could you do the same for IHYPPYTDWNQ [ALDH3B2_Y365] , please?
Response given: 0.881

Challenge: Could you do the same for AFRHGYFDEEM [PLEC_Y2971_R2969H_YF] , please?
Response given: 0.676

====

tested-on: MERTK (UniProt Q12866)
Sequence (Q12866 whole entry, looked up): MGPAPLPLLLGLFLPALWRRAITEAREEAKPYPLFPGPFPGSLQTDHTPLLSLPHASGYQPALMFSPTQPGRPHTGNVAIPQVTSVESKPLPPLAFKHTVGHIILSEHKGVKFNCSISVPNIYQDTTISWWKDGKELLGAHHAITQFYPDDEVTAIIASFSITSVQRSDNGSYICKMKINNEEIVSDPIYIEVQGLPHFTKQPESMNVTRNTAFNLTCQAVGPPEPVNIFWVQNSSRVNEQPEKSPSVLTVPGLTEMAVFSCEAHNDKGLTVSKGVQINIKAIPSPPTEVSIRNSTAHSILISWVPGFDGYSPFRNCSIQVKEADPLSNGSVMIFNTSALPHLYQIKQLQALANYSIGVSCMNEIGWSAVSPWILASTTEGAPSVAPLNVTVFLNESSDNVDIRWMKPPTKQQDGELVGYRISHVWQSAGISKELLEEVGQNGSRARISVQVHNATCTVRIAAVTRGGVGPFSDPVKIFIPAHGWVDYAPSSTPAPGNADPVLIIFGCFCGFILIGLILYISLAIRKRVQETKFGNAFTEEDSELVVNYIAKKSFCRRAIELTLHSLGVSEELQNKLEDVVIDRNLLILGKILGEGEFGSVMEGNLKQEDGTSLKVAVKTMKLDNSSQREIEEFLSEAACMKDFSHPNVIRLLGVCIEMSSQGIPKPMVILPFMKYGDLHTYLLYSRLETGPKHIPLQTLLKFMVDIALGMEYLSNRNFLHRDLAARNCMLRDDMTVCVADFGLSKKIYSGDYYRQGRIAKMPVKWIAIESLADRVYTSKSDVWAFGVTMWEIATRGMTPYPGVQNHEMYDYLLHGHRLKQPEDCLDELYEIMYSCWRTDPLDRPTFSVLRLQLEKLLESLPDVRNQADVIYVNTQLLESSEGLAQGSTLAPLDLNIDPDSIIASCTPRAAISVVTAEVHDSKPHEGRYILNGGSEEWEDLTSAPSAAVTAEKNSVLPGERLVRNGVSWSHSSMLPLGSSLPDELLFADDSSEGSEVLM
experimental-details: phosphorylation enrichment, bacterial display (enrichment ratio); higher = better substrate or ligand; peptides without Tyr show the background
Rule: phosphorylation enrichment under 0.6 gives label 0, otherwise label 1.

Sample answers from the record:
{"columns": ["seq", "category-label"],
 "data": [
  ["SQETYYRVSNM [ABCD1_Y181_Q178E]", "label 1"],
  ["LDFNEYFRDLN [HPRT1_Y198_YF]", "label 0"],
  ["QDDTVYMGKVT [DCTN1_Y1244]", "label 1"],
  ["LHRHAYPEQRQ [DPPA2_Y127]", "label 0"],
  ["RLLVVYHWTQR [HBD_Y36_P37H]", "label 1"],
  ["NIEPVYLNMLL [ATR_Y317]", "label 1"]
]}

Challenge: Given the entry TGDRPYVCPFD [YY1_Y383] , answer whether its phosphorylation enrichment meets or surpasses 0.6.
Response given: label 0

Challenge: Could you do the same for GFVEDYRPPFY [ACVRL1_Y421_I417F] , please?
Response given: label 0

Challenge: Could you do the same for FLAVGYHKPFI [IDS_Y225_H229Y_YF] , please?
Response given: label 0

Challenge: Could you do the same for HGEAFYSEVKP [PAK5_Y182_YF] , please?
Response given: label 1

Challenge: Could you do the same for NYCPGYNNFYN [USH2A_Y467_R464C] , please?
Response given: label 0

Challenge: Could you do the same for SLFPGYNFRFA [P2RX7_Y291_YF] , please?
Response given: label 0

Challenge: Could you do the same for IGNGFYFRVFS [MYBPC3_Y1136_YF] , please?
Response given: label 0

This collection of values is drawn from the supplement of paper PMC10065799.
